- Tested on: Staphylococcus aureus
- methodSummary: microbe, parasite or virus in culture
- Type: functional
- settings: ATCC 6538, 24 h
- Description: Antibacterial activity against Staphylococcus aureus ATCC 6538 after 24 hrs by MTT assay
measuredMetric: MIC

// query Quote MIC reported for O=C(/C=C/c1ccc(O)c(O)c1)Nc1ccccc1F please.
// result > 50 µg/mL

// query // fetch MIC given entry O=C(O)/C=C/c1ccc(O)c(O)c1 [CAFFEIC ACID]
// result > 50 µg/mL

// query Return MIC for the following compound: O=C(/C=C/c1ccc(O)c(O)c1)Nc1ccccc1Br
// result > 50 µg/mL

// query Specify reported MIC for the compound shown: CC1(C)S[C@@H]2[C@H](NC(=O)Cc3ccccc3)C(=O)N2[C@H]1C(=O)O [PENICILLIN G]
// result 1.39 µg/mL

// query Complete the entry with MIC for Cc1cccc(NC(=O)/C=C/c2ccc(O)c(O)c2)c1
// result 45.6 µg/mL

// query # return recorded MIC for entry Cc1ccc(NC(=O)/C=C/c2ccc(O)c(O)c2)cc1
// result > 50 µg/mL

// query Assign MIC to the following record: O=C(/C=C/c1ccc(O)c(O)c1)Nc1ccccc1[N+](=O)[O-]
// result > 50 µg/mL

// query Kindly indicate its recorded MIC. Item: Cc1ccccc1NC(=O)/C=C/c1ccc(O)c(O)c1
// result > 50 µg/mL

// query Please list MIC recorded for the compound O=C(/C=C/c1ccc(O)c(O)c1)Nc1cccc(F)c1
// result > 50 µg/mL

// query Return reported MIC. Input compound: COc1ccc(NC(=O)/C=C/c2ccc(O)c(O)c2)cc1
// result 50 µg/mL

// query Tell me its MIC given O=C(/C=C/c1ccc(O)c(O)c1)Nc1cccc(Cl)c1 as the entry.
// result 49.2 µg/mL

// query For the compound CCN(CC)C(=O)/C=C/c1ccc(O)c(O)c1 , give its measured MIC value.
// result > 50 µg/mL

// query # return recorded MIC for entry O=C(O)/C=C/c1ccc(O)cc1 [COUMARIC ACID]
// result > 50 µg/mL

// query Please indicate MIC recorded for CN(C(=O)/C=C/c1ccc(O)c(O)c1)c1ccccc1
// result > 50 µg/mL

// query Read off the recorded MIC for O=C(/C=C/c1ccc(O)c(O)c1)Nc1ccc(Br)cc1
// result > 50 µg/mL

// query Specify measured MIC for CCNC(=O)/C=C/c1ccc(O)c(O)c1 .
// result > 50 µg/mL

// query Note down MIC recorded for O=C(/C=C/c1ccc(O)c(O)c1)Nc1ccc(F)cc1
// result > 50 µg/mL

// query Could you please provide reported MIC for O=C(/C=C/c1ccc(O)c(O)c1)Nc1ccc([N+](=O)[O-])cc1 ? Thanks!
// result > 50 µg/mL

// query Specify measured MIC for O=C(/C=C/c1ccc(O)c(O)c1)Nc1ccc(Cl)cc1 .
// result 46.8 µg/mL

// query Quick one: give measured MIC for O=C(/C=C/c1ccc(O)c(O)c1)Nc1ccccc1
// result 41.5 µg/mL

// query Answer with reported MIC of O=C(/C=C/c1ccc(O)c(O)c1)Nc1ccccc1Cl
// result > 50 µg/mL

// query Fill in MIC for record O=C(/C=C/c1ccc(O)c(O)c1)Nc1cccc(Br)c1
// result > 50 µg/mL

// query Read off the recorded MIC for COc1cccc(NC(=O)/C=C/c2ccc(O)c(O)c2)c1
// result > 50 µg/mL
